Test system: TK-10
RUN DESCRIPTION: Growth inhibition of human TK10 cells after 48 hrs by sulforhodamine B assay
Assay type: functional
TEST CONDITIONS: TK-10, 48 h
Catalogue of log10 GI50 values
The figures below represent log10 of GI50, where GI50 is stated in µM.

Example results:
CC(=O)/C(=C\c1c(-c2ccccc2)[nH]c2ccccc12)S(=O)(=O)c1ccccc1 :: 0.58
COc1ccc(-c2[nH]c3ccccc3c2/C=C(\C#N)S(=O)(=O)c2ccccc2)cc1 :: 0.68
COC(=O)/C(=C\c1c(C)[nH]c2ccccc12)S(=O)(=O)c1ccccc1 :: 0.91

Q: Can you share its log10 GI50? I mean this compound: `COc1ccc2[nH]c(-c3ccccc3)c(C=C(C#N)C#N)c2c1`
Result: 0.71

Q: Same again, this time with `N#C/C(=C\c1c(-c2ccccc2)[nH]c2ccccc12)C(=O)c1ccccc1`
Result: 1.05

Q: Similarly, `CCOC(=O)C(=Cc1c(-c2ccccc2)[nH]c2ccccc12)C(=O)OCC` ?
Result: 1.13

====

Tested on: CCRF-CEM
RUN DESCRIPTION: Cytotoxicity against human CCRF-CEM cells after 96 hrs by MTT assay
Format: functional, cell-based
Assign labels as follows, please: yes (1) for EC50 below 1 µM; no (0) for EC50 equal to or exceeding 1 µM.

Sample answers from the record:
CC(=O)/C(=C/c1c(-c2ccccc2)[nH]c2ccccc12)C(=O)c1ccccc1 :: no (0)
N#C/C(=C\c1c(-c2ccccc2)[nH]c2ccccc12)C(=O)c1cccs1 :: no (0)
O=C(C(=Cc1c(-c2ccccc2)[nH]c2ccccc12)C(=O)c1ccccc1)c1ccccc1 :: no (0)

Q: Would you kindly verify if EC50 of `COc1ccc(-c2[nH]c3ccc(OC)cc3c2/C=C(\C#N)S(=O)(=O)c2ccccc2)cc1` is strictly less than 1 µM?
Result: yes (1)

====

# GI50 annotations
Test system: NCI-H522
RUN DESCRIPTION: Growth inhibition of human NCI-H522 cells after 48 hrs by sulforhodamine B assay
Type: functional
TEST CONDITIONS: NCI-H522, 48 h
Field format: number, assumed µM, no unit text.

See these solved cases before continuing.
N#C/C(=C\c1c(-c2ccccc2)[nH]c2ccccc12)S(=O)(=O)c1ccccc1 :: 4.6
COc1ccc(-c2[nH]c3ccccc3c2/C=C(\C#N)S(=O)(=O)c2ccccc2)cc1 :: 3
CC(=O)/C(=C\c1c(-c2ccccc2)[nH]c2ccccc12)S(=O)(=O)c1ccccc1 :: 1.3

Query compound follows.
Q: Please look up its GI50: `N#CC(C#N)=Cc1c(-c2ccccc2)[nH]c2ccccc12`
Result: 9.6

====

Here, each record is paired with measured log10(GI50) data.
Test system: UO-31
RUN DESCRIPTION: Growth inhibition of human UO31 cells after 48 hrs by sulforhodamine B assay
Type: functional
TEST CONDITIONS: UO-31, 48 h
In plain terms, each number is the log10 of measured GI50 in µM.

See these solved cases before continuing.
COC(=O)/C(=C\c1c(-c2ccccc2)[nH]c2ccccc12)S(C)(=O)=O :: 0.74
COc1ccc(-c2[nH]c3ccc(OC)cc3c2/C=C(\C#N)S(=O)(=O)c2ccccc2)cc1 :: 0.49
N#CC(C#N)=Cc1c(-c2ccccc2)[nH]c2ccccc12 :: 1.05

Q: Consider the compound `COc1ccc2[nH]c(-c3ccccc3)c(/C=C(\C#N)S(=O)(=O)c3ccccc3)c2c1` and give its measured log10(GI50).
Result: 0.60

Q: Try this compound too: `N#C/C(=C\c1c(-c2ccccc2)[nH]c2ccccc12)C(=O)c1ccccc1`
Result: 1.48

Q: Now the compound `CCOC(=O)C(=Cc1c(-c2ccccc2)[nH]c2ccccc12)C(=O)OCC`
Result: 0.60

Q: Next record, please: `COc1ccc2[nH]c(-c3ccccc3)c(C=C(C#N)C#N)c2c1`
Result: 0.81

Q: Also need `CC(=O)/C(=C\c1c(-c2ccccc2)[nH]c2ccccc12)S(C)(=O)=O` , thanks.
Result: 0.76

Q: Can you handle `N#C/C(=C\c1c(-c2ccccc2)[nH]c2ccccc12)S(=O)(=O)c1ccccc1` next?
Result: 0.83

Q: Same lookup for `CC(=O)/C(=C\c1c(-c2ccccc2)[nH]c2ccccc12)S(=O)(=O)c1ccccc1` , please.
Result: 0.20

====

Test system: SK-MEL-28
RUN DESCRIPTION: Growth inhibition of human SK-MEL-28 cells after 48 hrs by sulforhodamine B assay
Assay type: functional
TEST CONDITIONS: SK-MEL-28, 48 h
METRIC NAME: GI50 (µM)
Note: unit µM is implicit; provide only the numeric part.

CCOC(=O)C(=Cc1c(-c2ccccc2)[nH]c2ccccc12)C(=O)OCC :: 7.7
COC(=O)/C(=C\c1c(C)[nH]c2ccccc12)S(=O)(=O)c1ccccc1 :: 5.8
COC(=O)/C(=C\c1c(-c2ccccc2)[nH]c2ccccc12)S(C)(=O)=O :: 6

Q: # GI50 lookup, item `COc1ccc(-c2[nH]c3ccc(OC)cc3c2/C=C(\C#N)S(=O)(=O)c2ccccc2)cc1`
Result: 0.787

Q: Query `CC(=O)/C(=C\c1c(-c2ccccc2)[nH]c2ccccc12)S(=O)(=O)c1ccccc1` next
Result: 2

Q: Check `N#C/C(=C\c1c(-c2ccccc2)[nH]c2ccccc12)C(=O)c1ccccc1` too.
Result: 12

Q: Also `N#CC(C#N)=Cc1c(-c2ccccc2)[nH]c2ccccc12` ?
Result: 5.1

Q: What about `N#C/C(=C\c1c(-c2ccccc2)[nH]c2ccccc12)S(=O)(=O)c1ccccc1` ?
Result: 8.3

Q: Next compound: `COc1ccc(-c2[nH]c3ccc(OC)cc3c2C=C(C#N)C#N)cc1`
Result: 1.7

Q: Moving on to the next compound: `COc1ccc(-c2[nH]c3ccccc3c2C=C(C#N)C#N)cc1`
Result: 1.2

====

Tested on: K562
RUN DESCRIPTION: Antiproliferative activity against human K562 cells after 3 days incubation by alamar blue method
Assay type: functional
TEST CONDITIONS: K562, 72 h
METRIC NAME: GI50 (µM)
Respond with the bare value in µM.

Known GI50 results, listed for orientation:
CC(=O)/C(=C\c1c(-c2ccccc2)[nH]c2ccccc12)S(C)(=O)=O :: 7.71
COc1ccc(-c2[nH]c3ccccc3c2/C=C(\C#N)S(=O)(=O)c2ccccc2)cc1 :: 5.28

Query compound follows.
Q: Which value of GI50 has been reported for `COc1ccc(-c2[nH]c3ccccc3c2C=C(C#N)C#N)cc1` in the records?
Result: 4.78

====

Test system: NCI-H522
RUN DESCRIPTION: Growth inhibition of human NCI-H522 cells after 48 hrs by sulforhodamine B assay
Format: functional
TEST CONDITIONS: NCI-H522, 48 h
Just a reminder that ties go to 0 (no): only GI50 strictly below 3 µM counts as 1 (yes).

COC(=O)/C(=C\c1c(-c2ccccc2)[nH]c2ccccc12)S(C)(=O)=O :: 0 (no)

Q: Decide: GI50 of `COc1ccc2[nH]c(-c3ccccc3)c(/C=C(\C#N)S(=O)(=O)c3ccccc3)c2c1` strictly below 3 µM?
Result: 0 (no)

Q: Then this compound: `O=C(/C(=C\c1c(-c2ccccc2)[nH]c2ccccc12)S(=O)(=O)c1ccccc1)c1ccccc1`
Result: 0 (no)

Q: Another compound to look at: `CCOC(=O)C(=Cc1c(-c2ccccc2)[nH]c2ccccc12)C(=O)OCC`
Result: 0 (no)

Q: Field entry: `COC(=O)/C(=C\c1c(C)[nH]c2ccccc12)S(=O)(=O)c1ccccc1`
Result: 0 (no)

Q: Try `COc1ccc2[nH]c(-c3ccccc3)c(C=C(C#N)C#N)c2c1` next.
Result: 0 (no)

Q: Also check `N#C/C(=C\c1c(-c2ccccc2)[nH]c2ccccc12)C(=O)c1ccccc1`
Result: 0 (no)

Q: How about this compound: `CC(=O)/C(=C\c1c(-c2ccccc2)[nH]c2ccccc12)S(C)(=O)=O`
Result: 0 (no)

Q: // next record `COc1ccc(-c2[nH]c3ccccc3c2C=C(C#N)C#N)cc1`
Result: 1 (yes)

Q: What about this compound? `COc1ccc(-c2[nH]c3ccc(OC)cc3c2/C=C(\C#N)S(=O)(=O)c2ccccc2)cc1`
Result: 1 (yes)

====

Tested on: MDA-MB-231
RUN DESCRIPTION: Growth inhibition of human MDA-MB-231 cells after 48 hrs by sulforhodamine B assay
Type: functional
TEST CONDITIONS: MDA-MB-231, 48 h
METRIC NAME: GI50 (nM)
Give a bare numeral; the unit nM is implied.

Here is how some molecules turned out for GI50.
COc1ccc(-c2[nH]c3ccccc3c2/C=C(\C#N)S(=O)(=O)c2ccccc2)cc1 :: 649
COc1ccc(-c2[nH]c3ccc(OC)cc3c2C=C(C#N)C#N)cc1 :: 1300
COc1ccc(-c2[nH]c3ccc(OC)cc3c2/C=C(\C#N)S(=O)(=O)c2ccccc2)cc1 :: 1400
CC(=O)/C(=C\c1c(-c2ccccc2)[nH]c2ccccc12)S(C)(=O)=O :: 5500
COC(=O)/C(=C\c1c(C)[nH]c2ccccc12)S(=O)(=O)c1ccccc1 :: 2700
COC(=O)/C(=C\c1c(-c2ccccc2)[nH]c2ccccc12)S(C)(=O)=O :: 2400

Q: Returns the measured GI50 for the input molecule. Input: `N#CC(C#N)=Cc1c(-c2ccccc2)[nH]c2ccccc12`
Result: 1800

Q: Please do the same for `N#C/C(=C\c1c(-c2ccccc2)[nH]c2ccccc12)C(=O)c1ccccc1` as well.
Result: 13200

Q: And then `COc1ccc(-c2[nH]c3ccccc3c2C=C(C#N)C#N)cc1` , what is it?
Result: 562

Q: // next record `N#C/C(=C\c1c(-c2ccccc2)[nH]c2ccccc12)S(=O)(=O)c1ccccc1`
Result: 3800

Where do the numbers come from? From ChEMBL document CHEMBL3616442.
